I'd be grateful if you could share measured pest or weed control at 50 ppm for these entries.
System: Puccinia recondita f. sp. tritici
Assay: Test B: wheat leaf rust, preventive spray on wheat seedlings
Assay type: in vivo
Details: Puccinia recondita, 50 ppm, 100 = 100% disease control, 0 = no control, read-out: Test B disease control rating
Excerpt: General protocol for preparing test suspensions for Tests A-F: the test compounds were first dissolved in acetone in an amount equal to 3% of the final volume and then suspended at the desired concentration (in ppm) in acetone and purified water (50/50 mix by volume) containing 250 ppm of the surfactant PEG400 (polyhydric alcohol esters). The resulting test suspensions were then used in Tests A-F. The test solution was sprayed to the point of run-off on wheat seedlings. […]
Express the result in % but write the number alone.

Exam item: Return the recorded pest or weed control at 50 ppm value; entry: "COc1cc(OC)c(Cl)c(-c2cn(OC)c(=O)c(Cl)c2-c2ccc(F)cc2Cl)c1"
Marked response: 100

Exam item: Return the recorded pest or weed control at 50 ppm value; entry: "COc1cc(OC)c(Br)c(-c2cn(C)c(=O)c(Cl)c2-c2ccc(F)cc2F)c1"
Marked response: 100

Exam item: Return the recorded pest or weed control at 50 ppm value; entry: "COc1ccc(Cl)c(-c2cn(C)c(=O)c(Br)c2-c2ccc(F)cc2Cl)c1"
Marked response: 100

Exam item: Return the recorded pest or weed control at 50 ppm value; entry: "COc1ccc(Cl)c(-c2cn(C)c(=O)c(Cl)c2-c2ccc(F)cc2F)c1"
Marked response: 100

Exam item: Return the recorded pest or weed control at 50 ppm value; entry: "COc1cc(OC)c(Cl)c(-c2cn(C)c(=O)c(Cl)c2-c2ccc(F)cc2Cl)c1"
Marked response: 100

Exam item: Return the recorded pest or weed control at 50 ppm value; entry: "C#CCOn1cc(-c2cc(OC)cc(OC)c2Cl)c(-c2ccc(F)cc2Cl)c(Cl)c1=O"
Marked response: 99

Exam item: Return the recorded pest or weed control at 50 ppm value; entry: "COc1ccc(Cl)c(-c2cn(C)c(=O)c(C)c2-c2ccc(F)cc2Cl)c1"
Marked response: 100

Exam item: Return the recorded pest or weed control at 50 ppm value; entry: "COc1ccc(Br)c(-c2cn(C)c(=O)c(Cl)c2-c2ccc(F)cc2F)c1"
Marked response: 100

Exam item: Return the recorded pest or weed control at 50 ppm value; entry: "COc1cc(OC)c(Cl)c(-c2cn(OC(F)F)c(=O)c(Cl)c2-c2ccc(F)cc2Cl)c1"
Marked response: 100

Exam item: Return the recorded pest or weed control at 50 ppm value; entry: "COc1cc(OC)c(F)c(-c2cn(C)c(=O)c(Cl)c2-c2ccc(F)cc2F)c1"
Marked response: 100

Exam item: Return the recorded pest or weed control at 50 ppm value; entry: "COc1cc(OC)c(Cl)c(-c2cn(C)c(=O)c(Cl)c2-c2ccc(F)cc2F)c1"
Marked response: 100

Exam item: Return the recorded pest or weed control at 50 ppm value; entry: "COc1cc(OC)cc(-c2cn(OC)c(=O)c(Cl)c2-c2ccc(F)cc2Cl)c1"
Marked response: 99

Exam item: Return the recorded pest or weed control at 50 ppm value; entry: "COc1cc(OC)c(Cl)c(-c2cn(C)c(=O)c(C)c2-c2ccc(F)cc2Cl)c1"
Marked response: 100

Exam item: Return the recorded pest or weed control at 50 ppm value; entry: "COc1cc(OC)c(Cl)c(-c2cn(O)c(=O)c(Cl)c2-c2ccc(F)cc2Cl)c1"
Marked response: 86

Exam item: Return the recorded pest or weed control at 50 ppm value; entry: "COc1ccc(Cl)c(-c2cn(C)c(=O)c(Cl)c2-c2ccc(F)cc2Cl)c1"
Marked response: 100

###

I'd be grateful if you could share measured pest or weed control at 50 ppm for these entries.
test system: Phakopsora pachyrhizi; assay: Test D: Asian soybean rust, preventive spray on soybean seedlings; assay type: in vivo; settings: Phakopsora pachyrhizi, 216 h, 50 ppm, 100 = 100% disease control, 0 = no control, read-out: Test D disease control rating
Express the result in % but write the number alone.

Exam item: Return the recorded pest or weed control at 50 ppm value; entry: "COc1cc(OC)c(Cl)c(-c2cn(C)c(=O)c(Cl)c2-c2ccc(F)cc2Cl)c1"
Marked response: 99

Exam item: Return the recorded pest or weed control at 50 ppm value; entry: "COc1ccc(Cl)c(-c2cn(C)c(=O)c(C)c2-c2ccc(F)cc2Cl)c1"
Marked response: 97

Exam item: Return the recorded pest or weed control at 50 ppm value; entry: "COc1cc(OC)c(Cl)c(-c2cn(O)c(=O)c(Cl)c2-c2ccc(F)cc2Cl)c1"
Marked response: 77

Exam item: Return the recorded pest or weed control at 50 ppm value; entry: "C#CCOn1cc(-c2cc(OC)cc(OC)c2Cl)c(-c2ccc(F)cc2Cl)c(Cl)c1=O"
Marked response: 96

Exam item: Return the recorded pest or weed control at 50 ppm value; entry: "COc1ccc(Br)c(-c2cn(C)c(=O)c(Cl)c2-c2ccc(F)cc2F)c1"
Marked response: 97

Exam item: Return the recorded pest or weed control at 50 ppm value; entry: "COc1cc(OC)c(Cl)c(-c2cn(C)c(=O)c(C)c2-c2ccc(F)cc2Cl)c1"
Marked response: 100

Exam item: Return the recorded pest or weed control at 50 ppm value; entry: "COc1ccc(Cl)c(-c2cn(C)c(=O)c(Cl)c2-c2ccc(F)cc2Cl)c1"
Marked response: 99

###

tested on: Botrytis cinerea; experiment: Test E: tomato Botrytis, preventive spray on tomato seedlings; type: in vivo; conditions: 250 ppm, 100 = 100% disease control, 0 = no control
I'd be grateful if you could share measured Test E disease control rating for these entries.

Exam item: Return the recorded Test E disease control rating value; entry: COc1cccc(-c2cn(C)c(=O)c(Cl)c2-c2ccc(F)cc2F)c1 [Compound 8]
Marked response: 99%

Exam item: Return the recorded Test E disease control rating value; entry: CCOn1cc(-c2cc(OC)cc(OC)c2)c(-c2ccc(F)cc2Cl)c(Cl)c1=O [Compound 45]
Marked response: 97%

Exam item: Return the recorded Test E disease control rating value; entry: COc1cccc(-c2c(-c3ccc(F)cc3Cl)c(C#N)c(=O)n(C)c2C)c1 [Compound 6]
Marked response: 0%

Exam item: Return the recorded Test E disease control rating value; entry: CCOn1cc(-c2cc(OC)cc(OC)c2Cl)c(-c2ccc(F)cc2Cl)c(Cl)c1=O [Compound 46]
Marked response: 88%

###

system: Phakopsora pachyrhizi; experiment: Test D: Asian soybean rust, preventive spray on soybean seedlings; type: in vivo; conditions: 50 ppm, 100 = 100% disease control, 0 = no control
Short version: Test D disease control rating at least 20% is satisfied, less is not satisfied.

Exam item: Is it the case that "COc1ccc(F)c(-c2cn(C)c(=O)c(Cl)c2-c2ccc(F)cc2F)c1" has Test D disease control rating reaching or exceeding 20%?
Marked response: satisfied

Exam item: Is it the case that "COc1cc(OC)c(Cl)c(-c2cn(OCC(F)F)c(=O)c(Cl)c2-c2ccc(F)cc2Cl)c1" has Test D disease control rating reaching or exceeding 20%?
Marked response: satisfied

Exam item: Is it the case that "COc1ccc(Cl)c(-c2cn(C)c(=O)cc2-c2ccccc2C(F)(F)F)c1" has Test D disease control rating reaching or exceeding 20%?
Marked response: not satisfied

Exam item: Is it the case that "CCn1cc(-c2cc(OC)ccc2Cl)c(-c2ccc(F)cc2Cl)c(Cl)c1=O" has Test D disease control rating reaching or exceeding 20%?
Marked response: not satisfied

Exam item: Is it the case that "Cc1cc(F)ncc1-c1cn(C)c(=O)c(Cl)c1-c1ccc(F)cc1Cl" has Test D disease control rating reaching or exceeding 20%?
Marked response: satisfied

Exam item: Is it the case that "COc1ccc(Cl)c(-c2cn(C)c(=O)c(Cl)c2-c2cccc(F)c2F)c1" has Test D disease control rating reaching or exceeding 20%?
Marked response: satisfied

Exam item: Is it the case that "COc1ccc(Cl)c(-c2cn(C)c(=O)cc2-c2ccc(F)cc2Cl)c1" has Test D disease control rating reaching or exceeding 20%?
Marked response: not satisfied

Exam item: Is it the case that "Cn1cc(-c2cc(F)ccc2Cl)c(-c2ccc(F)cc2Cl)c(Cl)c1=O" has Test D disease control rating reaching or exceeding 20%?
Marked response: not satisfied

Exam item: Is it the case that "Cn1cc(-c2ccc(F)cc2F)c(-c2ccc(F)cc2F)c(Cl)c1=O" has Test D disease control rating reaching or exceeding 20%?
Marked response: satisfied

Exam item: Is it the case that "COc1ccc(Cl)c(-c2cn(C)c(=O)cc2-c2ccccc2Br)c1" has Test D disease control rating reaching or exceeding 20%?
Marked response: not satisfied

Exam item: Is it the case that "COc1ccc(Cl)c(-c2cn(C)c(=O)c(Cl)c2-c2ccccc2C(F)(F)F)c1" has Test D disease control rating reaching or exceeding 20%?
Marked response: satisfied

Exam item: Is it the case that "CCOc1ccc(Cl)c(-c2cn(C)c(=O)c(Cl)c2-c2ccc(F)cc2F)c1" has Test D disease control rating reaching or exceeding 20%?
Marked response: satisfied

Exam item: Is it the case that "Cn1cc(-c2cccc([N+](=O)[O-])c2)c(-c2ccc(F)cc2Cl)c(Cl)c1=O" has Test D disease control rating reaching or exceeding 20%?
Marked response: not satisfied

Exam item: Is it the case that "Cn1cc(-c2ccccc2C(F)(F)F)c(-c2ccc(F)cc2Cl)c(Cl)c1=O" has Test D disease control rating reaching or exceeding 20%?
Marked response: satisfied

Exam item: Is it the case that "COc1ccc(Cl)c(-c2cn(C)c(=O)cc2-c2ccc(Br)cc2Cl)c1" has Test D disease control rating reaching or exceeding 20%?
Marked response: not satisfied

Exam item: Is it the case that "COc1ccc(Cl)c(-c2cn(C)c(=O)c(Cl)c2-c2ccccc2Br)c1" has Test D disease control rating reaching or exceeding 20%?
Marked response: satisfied

Cited source for all entries: patent US20240215577A1
